# assay.details: ATG_CRE_CIS: Attagene CIS-FACTORIAL HepG2 Assay for human cAMP Responsive Element (CRE) binding protein 3 (AID 2282926)
# setup.conditions: HepG2 CRE cis-reporter, Attagene multiplexed mRNA; actives raise or lower the signal
Active and inactive are the calls of the source. The calls were made as follows: active = hit-call score of the fitted dose curve at least 0.9, where 1 is the maximum; inactive = score below 0.9.
A correct response names exactly one class from active, inactive

# example entries with known answers
{"test.smiles": "COc1ccc(C(=O)Nc2nc3ccccc3c(NCc3ccccc3)c2C#N)cc1", "label.class": "inactive"}
{"test.smiles": "C=CCc1ccc(OC)c(OC)c1", "label.class": "inactive"}
{"test.smiles": "CN(C)C(=O)NC1(c2ccccc2)CCN(CCC[C@]2(c3ccc(Cl)c(Cl)c3)CCCN(C(=O)c3ccccc3)C2)CC1", "label.class": "active"}

Hi team, can someone confirm the assay call for CN(C)CCCN(C)CCCN(C)C ? inactive

Hi team, can someone confirm the assay call for CC(C)(O)c1ccc(CNC(=O)c2cccnc2Oc2ccc(F)cc2)cc1 ? inactive

Hi team, can someone confirm the assay call for Nc1nc(=S)c2[nH]cnc2[nH]1 ? inactive

* * *

# Read-out: Monocyte Chemoattractant Protein-1 (MCP1), CCL2 (gene 6347)
# assay.details: BSK_LPS_MCP1: BioMAP Diversity Plus: LPS Assay for Monocyte Chemoattractant Protein-1 (MCP1) Biomarker Activity (AID 2283081)
# setup.conditions: primary human HUVEC with PBMC; actives raise or lower the signal
The source made the active and inactive calls. The calls were made as follows: active = hit-call score of the fitted dose curve at least 0.9, where 1 is the maximum; inactive = score below 0.9.
A correct response names exactly one class from active, inactive

# example entries with known answers
{"molecule": "CC1(C)C(=O)NC(=O)N1CO", "label.class": "inactive"}
{"molecule": "NC(=Nc1ccccc1)Nc1ccccc1", "label.class": "inactive"}
{"molecule": "Cc1ccc(C(C)(C)C)c(O)c1", "label.class": "inactive"}
{"molecule": "Oc1ccccc1O", "label.class": "inactive"}
{"molecule": "Nc1nc(Cl)nc2c1ncn2[C@H]1C[C@H](O)[C@@H](CO)O1", "label.class": "active"}
{"molecule": "CC(=O)[C@@]1(O)CC[C@H]2[C@@H]3CCC4=CC(=O)CC[C@]4(C)[C@H]3CC[C@@]21C", "label.class": "inactive"}
{"molecule": "CN(C)CCCN(C)CCCN(C)C", "label.class": "inactive"}
{"molecule": "CCCCCCC(CCCCCCCCCCC(=O)OCC(COC(C)=O)OC(C)=O)OC(C)=O (configuration not stated)", "label.class": "inactive"}

Hi team, can someone confirm the assay call for CC(C)NCC(O)c1ccc(O)c(O)c1 (configuration not stated) ? inactive

Hi team, can someone confirm the assay call for OCC(CO)n1cnc(-c2ccc(F)cc2)c1-c1ccnc(Oc2ccccc2)n1 ? active

Hi team, can someone confirm the assay call for CC(=O)O[C@]1(C(C)=O)CC[C@H]2[C@@H]3C=C(Cl)C4=CC(=O)[C@@H]5C[C@@H]5[C@]4(C)[C@H]3CC[C@@]21C ? inactive

Hi team, can someone confirm the assay call for CS(=O)(=O)c1ccc([C@@H](C[C@H]2CCC(=O)C2)C(=O)Nc2cnccn2)cc1Cl ? inactive

* * *

# assay.details: ATG_ERE_CIS: Attagene CIS-FACTORIAL HepG2 Assay for Estrogen Response Element (ERE) (AID 2282940)
# setup.conditions: HepG2 ERE cis-reporter, Attagene RNA transcript; actives raise or lower the signal
Active and inactive are the calls of the source. The calls were made as follows: active = hit-call score of the fitted dose curve at least 0.9, where 1 is the maximum; inactive = score below 0.9.
A correct response names exactly one class from active, inactive

Hi team, can someone confirm the assay call for CCCCCCC(CCCCCCCCCCC(=O)OCC(COC(C)=O)OC(C)=O)OC(C)=O (stereo unspecified) ? inactive

Hi team, can someone confirm the assay call for O=[Si]=O ? inactive

Hi team, can someone confirm the assay call for CSc1ccc(Oc2ccc(S(N)(=O)=O)cc2CN(C)C)cc1C ? inactive

Hi team, can someone confirm the assay call for Cc1c(C)c2c(c(C)c1O)CCC(C)(COc1ccc(CC3SC(=O)NC3=O)cc1)O2 (stereo unspecified) ? active

Hi team, can someone confirm the assay call for CCCCc1nc2cccnc2n1Cc1ccc(-c2ccccc2-c2nnn[nH]2)cc1 ? inactive

Source: PubChem BioAssay (EPA / NIEHS)
